These entries and their values trace back to ChEMBL document CHEMBL3045012.

Test system: Aspergillus niger
ASSAY_OVERVIEW: Antimicrobial activity against Aspergillus niger MTCC 282 assessed as growth inhibition after 48 hr by agar streak dilution technique
Type: functional
RECORDED_CONDITIONS: MTCC 282, 48 h
Each entry below lists one item and its recorded MIC value.
QUANTITY_MEASURED: MIC (µg/mL)

| COMPOUND | UNITS_SYMBOL | RESULT_QUALIFIER | MEASURED_NUMBER |
| --- | --- | --- | --- |
| O=C1CSC(c2cc3ccccc3nc2Cl)N1c1cccc([N+](=O)[O-])c1 (stereo not given) | µg/mL | = | 25 |
| Cc1ccc(N2C(=O)C(Cl)C2c2cc3ccccc3nc2Cl)cc1 (stereo not given) | µg/mL | = | 100 |
| O=C1CSC(c2cc3ccccc3nc2Cl)N1c1ccccc1[N+](=O)[O-] (stereo not given) | µg/mL | = | 50 |
| O=C1CSC(c2cc3ccccc3nc2Cl)N1c1cccc(Cl)c1 (stereo not given) | µg/mL | = | 50 |
| Cc1cnc(N2C(=O)C(Cl)C2c2cc3ccccc3nc2Cl)s1 (stereo not given) | µg/mL | = | 62.5 |
| CC(=O)N1CCN(c2ccc(OCC3COC(Cn4ccnc4)(c4ccc(Cl)cc4Cl)O3)cc2)CC1 (stereo not given) [KETOCONAZOLE] | µg/mL | ≤ | 3 |
| Cc1ccccc1N1C(=O)CSC1c1cc2ccccc2nc1Cl (stereo not given) | µg/mL | = | 100 |
| O=C1C(Cl)C(c2cc3ccccc3nc2Cl)N1c1cccc(Cl)c1 (stereo not given) | µg/mL | = | 62.5 |
| O=C1CSC(c2cc3ccccc3nc2Cl)N1c1ccc([N+](=O)[O-])cc1 (stereo not given) | µg/mL | = | 12.5 |
| Cc1ccc(N2C(=O)CSC2c2cc3ccccc3nc2Cl)cc1 (stereo not given) | µg/mL | = | 100 |
| Cc1ccccc1N1C(=O)C(Cl)C1c1cc2ccccc2nc1Cl (stereo not given) | µg/mL | = | 100 |
| O=C1C(Cl)C(c2cc3ccccc3nc2Cl)N1c1ccc([N+](=O)[O-])cc1 (stereo not given) | µg/mL | = | 50 |
| Cc1cnc(N2C(=O)CSC2c2cc3ccccc3nc2Cl)s1 (stereo not given) | µg/mL | = | 62.5 |
| O=C1C(Cl)C(c2cc3ccccc3nc2Cl)N1c1ccccc1 (stereo not given) | µg/mL | = | 100 |
| O=C1CSC(c2cc3ccccc3nc2Cl)N1c1ccc(Cl)cc1 (stereo not given) | µg/mL | = | 12.5 |
| Cc1cccc(N2C(=O)CSC2c2cc3ccccc3nc2Cl)c1 (stereo not given) | µg/mL | = | 100 |
| O=C1C(Cl)C(c2cc3ccccc3nc2Cl)N1c1cccc([N+](=O)[O-])c1 (stereo not given) | µg/mL | = | 50 |
| O=C1C(Cl)C(c2cc3ccccc3nc2Cl)N1c1ccc(Cl)cc1 (stereo not given) | µg/mL | = | 100 |
| O=C1CSC(c2cc3ccccc3nc2Cl)N1c1ccccc1Cl (stereo not given) | µg/mL | = | 62.5 |
| O=C1CSC(c2cc3ccccc3nc2Cl)N1c1ccccc1 (stereo not given) | µg/mL | = | 100 |
| O=C1C(Cl)C(c2cc3ccccc3nc2Cl)N1c1ccc(F)cc1 (stereo not given) | µg/mL | = | 25 |
| O=C1C(Cl)C(c2cc3ccccc3nc2Cl)N1c1ccccc1[N+](=O)[O-] (stereo not given) | µg/mL | = | 50 |
| Cc1cccc(N2C(=O)C(Cl)C2c2cc3ccccc3nc2Cl)c1 (stereo not given) | µg/mL | = | 100 |
| O=C1CSC(c2cc3ccccc3nc2Cl)N1c1ccc(F)cc1 (stereo not given) | µg/mL | = | 12.5 |
| O=C1C(Cl)C(c2cc3ccccc3nc2Cl)N1c1ccccc1Cl (stereo not given) | µg/mL | = | 100 |

* * *

Tested on: Pseudomonas aeruginosa
ASSAY_OVERVIEW: Antimicrobial activity against Pseudomonas aeruginosa MTCC 741 assessed as growth inhibition after 24 hr by agar streak dilution technique
Assay type: functional
RECORDED_CONDITIONS: MTCC 741, 24 h

| COMPOUND | UNITS_SYMBOL | MIC |
| --- | --- | --- |
| O=C1C(Cl)C(c2cc3ccccc3nc2Cl)N1c1ccccc1Cl (stereo unspecified) | µg/mL | 50 |
| O=C1CSC(c2cc3ccccc3nc2Cl)N1c1cccc(Cl)c1 (stereo unspecified) | µg/mL | 25 |
| Cc1cnc(N2C(=O)CSC2c2cc3ccccc3nc2Cl)s1 (stereo unspecified) | µg/mL | 50 |
| O=C1C(Cl)C(c2cc3ccccc3nc2Cl)N1c1ccccc1 (stereo unspecified) | µg/mL | 100 |
| O=C1CSC(c2cc3ccccc3nc2Cl)N1c1ccccc1 (stereo unspecified) | µg/mL | 100 |
| Cc1ccccc1N1C(=O)C(Cl)C1c1cc2ccccc2nc1Cl (stereo unspecified) | µg/mL | 100 |
| O=C1C(Cl)C(c2cc3ccccc3nc2Cl)N1c1cccc(Cl)c1 (stereo unspecified) | µg/mL | 25 |
| O=C1C(Cl)C(c2cc3ccccc3nc2Cl)N1c1ccc(F)cc1 (stereo unspecified) | µg/mL | 50 |
| Cc1cccc(N2C(=O)CSC2c2cc3ccccc3nc2Cl)c1 (stereo unspecified) | µg/mL | 100 |
| O=C1CSC(c2cc3ccccc3nc2Cl)N1c1ccc([N+](=O)[O-])cc1 (stereo unspecified) | µg/mL | 12.5 |
| Cc1ccccc1N1C(=O)CSC1c1cc2ccccc2nc1Cl (stereo unspecified) | µg/mL | 100 |

* * *

System: Staphylococcus aureus
ASSAY_OVERVIEW: Antimicrobial activity against Staphylococcus aureus MTCC 96 assessed as diameter of growth inhibition zone after 24 hr by paper disk diffusion technique; further: test concentration or dose not given here
Assay type: functional
QUANTITY_MEASURED: diameter of the inhibition zone (DIZ) (mm)

| COMPOUND | TEST_TARGET | QUANTITY_MEASURED | UNITS_SYMBOL | RESULT_QUALIFIER | MEASURED_NUMBER |
| --- | --- | --- | --- | --- | --- |
| Cc1ccc(N2C(=O)C(Cl)C2c2cc3ccccc3nc2Cl)cc1 (stereo unspecified) | Staphylococcus aureus | diameter of the inhibition zone (DIZ) | mm | = | 17 |
| O=C1C(Cl)C(c2cc3ccccc3nc2Cl)N1c1ccc(Cl)cc1 (stereo unspecified) | Staphylococcus aureus | diameter of the inhibition zone (DIZ) | mm | = | 21 |
| O=C1C(Cl)C(c2cc3ccccc3nc2Cl)N1c1cccc(Cl)c1 (stereo unspecified) | Staphylococcus aureus | diameter of the inhibition zone (DIZ) | mm | = | 25 |
| O=C(O)c1cn(C2CC2)c2cc(N3CCNCC3)c(F)cc2c1=O | Staphylococcus aureus | diameter of the inhibition zone (DIZ) | mm | = | 30 |
| Cc1ccccc1N1C(=O)C(Cl)C1c1cc2ccccc2nc1Cl (stereo unspecified) | Staphylococcus aureus | diameter of the inhibition zone (DIZ) | mm | = | 16 |
| Cc1ccccc1N1C(=O)CSC1c1cc2ccccc2nc1Cl (stereo unspecified) | Staphylococcus aureus | diameter of the inhibition zone (DIZ) | mm | < | 10 |
| O=C1C(Cl)C(c2cc3ccccc3nc2Cl)N1c1ccccc1Cl (stereo unspecified) | Staphylococcus aureus | diameter of the inhibition zone (DIZ) | mm | = | 24 |
| O=C1CSC(c2cc3ccccc3nc2Cl)N1c1cccc(Cl)c1 (stereo unspecified) | Staphylococcus aureus | diameter of the inhibition zone (DIZ) | mm | = | 26 |
| O=C1CSC(c2cc3ccccc3nc2Cl)N1c1ccc(F)cc1 (stereo unspecified) | Staphylococcus aureus | diameter of the inhibition zone (DIZ) | mm | = | 24 |
| O=C1CSC(c2cc3ccccc3nc2Cl)N1c1ccccc1[N+](=O)[O-] (stereo unspecified) | Staphylococcus aureus | diameter of the inhibition zone (DIZ) | mm | = | 25 |
| Cc1cccc(N2C(=O)C(Cl)C2c2cc3ccccc3nc2Cl)c1 (stereo unspecified) | Staphylococcus aureus | diameter of the inhibition zone (DIZ) | mm | < | 10 |

* * *

System: Pseudomonas aeruginosa
ASSAY_OVERVIEW: Antimicrobial activity against Pseudomonas aeruginosa MTCC 741 assessed as diameter of growth inhibition zone after 24 hr by paper disk diffusion technique; further: test concentration or dose not given here
Format: functional
Each entry below lists one item and its recorded diameter of the inhibition zone (DIZ) value.

| COMPOUND | TEST_TARGET | RESULT_QUALIFIER | diameter of the inhibition zone (DIZ), mm |
| --- | --- | --- | --- |
| O=C1C(Cl)C(c2cc3ccccc3nc2Cl)N1c1ccc(Cl)cc1 (stereo unspecified) | Pseudomonas aeruginosa | = | 23 |
| O=C1C(Cl)C(c2cc3ccccc3nc2Cl)N1c1ccccc1 (stereo unspecified) | Pseudomonas aeruginosa | < | 10 |
| O=C1CSC(c2cc3ccccc3nc2Cl)N1c1ccccc1[N+](=O)[O-] (stereo unspecified) | Pseudomonas aeruginosa | = | 25 |
| Cc1cccc(N2C(=O)CSC2c2cc3ccccc3nc2Cl)c1 (stereo unspecified) | Pseudomonas aeruginosa | = | 16 |
| O=C1C(Cl)C(c2cc3ccccc3nc2Cl)N1c1ccccc1[N+](=O)[O-] (stereo unspecified) | Pseudomonas aeruginosa | = | 21 |
| Cc1cnc(N2C(=O)C(Cl)C2c2cc3ccccc3nc2Cl)s1 (stereo unspecified) | Pseudomonas aeruginosa | = | 21 |
